- Test system: A549
- assayInfo: Cytotoxicity against human A549 cells after 3 days by MTT assay
- Assay type: functional, cell-based
- conditionLabel: A549, 72 h
readoutKind: IC50 (µM)

In [3]: df
Out[3]:
                                   compound  measuredvalue
0  CCOP(=O)(OCC)C(NC(=S)NC(=O)[C@]1(C)CCC[C@]2(C)c3ccc(C(C)C)cc3/C(=N\O)C[C@@H]12)c1ccccc1Cl (stereo partly specified)           32.8
1  CCOP(=O)(OCC)C(NC(=S)NC(=O)[C@]1(C)CCC[C@]2(C)c3ccc(C(C)C)cc3C(=O)C[C@@H]12)c1ccccc1OC (stereo partly specified)           19.9
2  CCOP(=O)(OCC)C(NC(=S)NC(=O)[C@]1(C)CCC[C@]2(C)c3ccc(C(C)C)cc3C(=O)C[C@@H]12)c1ccc(F)cc1 (stereo partly specified)           17.4
3  CCOP(=O)(OCC)C(NC(=S)NC(=O)[C@]1(C)CCC[C@]2(C)c3ccc(C(C)C)cc3C(=O)C[C@@H]12)c1ccc2ccccc2c1 (stereo partly specified)           23.2
4  CCOP(=O)(OCC)C(NC(=S)NC(=O)[C@]1(C)CCC[C@]2(C)c3ccc(C(C)C)cc3/C(=N\O)C[C@@H]12)c1ccccc1F (stereo partly specified)           9.16
5  CCOP(=O)(OCC)C(NC(=S)NC(=O)[C@]1(C)CCC[C@]2(C)c3ccc(C(C)C)cc3C(=O)C[C@@H]12)c1ccc(Br)cc1 (stereo partly specified)           49.6
